Measured values drawn from patent US20180000750A1 for this set.

# Tested on: HUVECs
# assay.protocol: MTT cell viability, HUVECs
# Format: cell-based, human
# recorded.conditions: 48 hrs, read-out: IC50 (cytotoxicity, MTT)
observed.property: pIC50
Quick note: pIC50 values are minus log10 of concentrations in mol/L.

In: Which pIC50 value belongs to C[C@]12C(=O)C=CCC1=CC[C@@H]1[C@@H]2CC[C@]2(O)C(=O)O[C@@]3(C)[C@H]4C[C@]5(C)[C@@H](CO[C@@]16O[C@@]32[C@H]5C6=O)C(=O)O4 [Physalin B] ?
Out: 4.52

---

# Test system: late EPCs
# assay.protocol: MTT cell viability, late EPCs
# Type: cell-based, human
# recorded.conditions: 48 hrs, read-out: IC50 (cytotoxicity, MTT)
observed.property: IC50
Reply with the number, then its unit.

In: Which IC50 value belongs to "C[C@]12C(=O)C=CCC1=CC[C@@H]1[C@@H]2CC[C@]2(O)C(=O)O[C@@]3(C)[C@H]4C[C@]5(C)[C@@H](CO[C@@]16O[C@@]32[C@H]5C6=O)C(=O)O4" ?
Out: 76 µM
